The reported measurements were obtained from PubChem BioAssay (NCI).

Task for the reader: assign each of the following molecules its reported TGI.
- Tested on: SF-268 CNS
- TEST DETAILS: NCI tumour cell line growth inhibition, 48 h
Where a SMILES comes first, the peptide text is derived from it. The star is where a group is joined. Trt = c1ccc(C(c2ccccc2)(c2ccccc2)*)cc1; Cbz = O=C(OCc1ccccc1)*

MOLECULE	TGI
O=C(O)c1nc2ccccc2nc1Nc1ccc(Cl)c(Cl)c1	> 100 µM
CC(C)[C@@H]1CC[C@@H](C)C[C@H]1OC(=O)c1c2n(c3ccccc13)C[C@H]1OC(C)(C)O[C@@H]21	> 100 µM
Nc1nc2c(N)cc(C(F)(F)F)cc2nc1-c1ccccc1	> 100 µM
C=C1CC(C)(COc2ccc3c(C)c(Cl)c(=O)oc3c2)OC1=O (stereo not given)	19.2 µM
CN(C)c1ccc(/C=C/C(=O)c2ccc(O)cc2)cc1	> 100 µM

Working through the 2 molecules below one at a time, give TGI for each.
1. NC(N)=N/N=C/c1c(-c2ccsc2)nc2n1CCS2
2. COC(=O)C(CO)NC(=O)C(CSC(c1ccccc1)(c1ccccc1)c1ccccc1)NC(=O)OCc1ccccc1 (stereo not given) (Cbz-Cys(Trt)-Ser-OMe; configuration not given here)

Result:
82.2 µM
44.9 µM

Working through the 3 molecules below one at a time, give TGI for each.
1. OCC#CCNCl
2. Clc1ccc(Nc2nnc(CNc3ccc(-c4nnc(Nc5ccc(Cl)cc5)s4)cc3)s2)cc1
3. COc1cc2c(c(OC)c1OC)-c1ccc(NN(C(=O)c3ccccc3)C(=O)c3ccccc3)c(=O)cc1[C@@H](NC(C)=O)CC2 (tested in a mixture with another compound)

Result:
1: > 100 µM; 2: > 100 µM; 3: > 100 µM

====

- Tested on: MCF7 breast
- TEST DETAILS: NCI tumour cell line growth inhibition, 48 h
QUANTITY KIND: TGI

MOLECULE	TGI
O=c1[nH]/c(=C/c2ccc3c(c2)OCO3)c(=O)[nH]/c1=C/c1ccc2c(c1)OCO2	> 10 µM
O=C(Nc1ccc([N+](=O)[O-])cc1)Nn1cnnc1	> 100 µM
Cn1c(=O)c2[nH]c(N=O)nc2n(C)c1=O	> 100 µM
O=C1NC(=S)S/C1=C\c1cn(-c2ccccc2)nc1-c1ccccc1	94.1 µM
NC(N)=N/N=C/c1c(-c2ccsc2)nc2n1CCS2	50.2 µM
Cc1cc(=O)oc2ccc(OC/C=C3\CCC(=O)O3)cc12	13.3 µM
CC(C)C1CNC(=O)C2(C=NC(C(C)C)CNC(=O)C3(C=N1)CCCO3)CCCO2 (stereo not drawn)	> 10 µM
Brc1ccc(C2C3CSc4ccccc4C3=NN2c2ccccc2)cc1 (stereo not drawn)	> 100 µM
c1ccc(-c2oc(-c3ccccc3)c(CN3CCCCC3)c2CN2CCCCC2)cc1	6.15 µM
COc1ccc(C(O)c2cc3c(N)c(C(=O)Nc4ccc(Cl)cc4)sc3nc2C)cc1 (stereo not drawn)	17.2 µM

Working through the 4 molecules below one at a time, give TGI for each.
1. COc1ccc(-c2cc(=O)c3c(O)c(OC)c(OC)c(OC)c3o2)cc1OC
2. FC(F)(F)c1ccccc1C1SCC2=Nc3ccccc3CN21 (stereo not drawn)
3. CC1(C)C2CCC3CC(CCC#N)CCC3C21C#N (stereo not drawn)
4. COC1(CC[C@@H](C)COC2OC(CO)C(O)C(O)C2O)O[C@H]2C[C@H]3[C@@H]4CC=C5C[C@@H](OC6OC(CO)C(OC7OC(C)C(O)C(O)C7O)C(O)C6OC6OC(C)C(O)C(O)C6O)CC[C@]5(C)[C@H]4CC[C@]3(C)[C@H]2[C@@H]1C (stereo partly drawn)

Result:
> 100 µM
26.5 µM
> 100 µM
12.9 µM

Working through the 8 molecules below one at a time, give TGI for each.
1. O=C1NC2NC3NC(=O)NC3NC2N1 (stereo not drawn)
2. Cc1ccc(/C=C2\Sc3scc(-c4ccccc4)[n+]3C2=O)cc1
3. CC(C)OC(=O)c1ccc(NCc2cc(O)ccc2O)cc1
4. O=C1NC(=NCCc2ccc(F)cc2)S/C1=C\c1ccc2ncccc2c1
5. Cn1cc(/C=C\[N+](=O)[O-])c2ccccc21
6. CSC1=NC(=Nc2c(C)cccc2C)C2(CCC(C(C)(C)C)CC2)N1c1ccc(Cl)cc1 (stereo not drawn)
7. CCOC(=O)N/N=C(/N)c1cccc(Br)c1
8. C#Cc1cccc(Nc2ncnc3cc(NC(=O)CCl)ccc23)c1

Result:
1: > 100 µM; 2: > 100 µM; 3: 18.9 µM; 4: > 25 µM; 5: 80.6 µM; 6: > 100 µM; 7: > 100 µM; 8: 4.73 µM

Working through the 6 molecules below one at a time, give TGI for each.
1. Cc1ccc(S(=O)c2cccs2)cc1 (stereo not drawn)
2. CC(=O)CCCCn1c(=O)c2c(nc(Br)n2C)n(C)c1=O
3. Cc1cccc(C2ON=C(c3ccccc3)N2C23CC4CC(CC(C4)C2)C3)c1 (stereo not drawn)
4. N#CCn1c(=O)c(Oc2ccc(F)cc2F)cc2cnc(NC3CCOCC3)nc21
5. CN(C)c1ccc(/C=C/C(=O)c2ccc(O)cc2)cc1
6. COc1ccc(-n2c(CCC(=O)O)nc3c2C(=O)c2ccccc2C3=O)cc1

Result:
> 100 µM
> 100 µM
> 10 µM
> 25 µM
> 100 µM
> 100 µM

====

- Test system: HCT-116 colon
- TEST DETAILS: NCI tumour cell line growth inhibition, 48 h
QUANTITY KIND: TGI

>>> print(df.to_string())
                      compound_string    result
0  CCCCC1=CSC(c2ccccc2)=C(c2ccccc2)S1  > 100 µM

Working through the 5 compounds below one at a time, give TGI for each.
1. CN1CCN(CC(=O)N(C)c2ccc(N=C(c3ccccc3)c3c(O)[nH]c4ccc(C#N)cc34)cc2)CC1
2. COc1cc2oc(-c3cccc(C(=O)Nc4ccc(Cl)cc4)c3)cc(=O)c2c(OC)c1OC
3. CC(=O)OI1NC(=O)c2ccccc21
4. CC(C)(CN1C(=O)C(Cl)=C(Cl)C1=O)CN1C(=O)C(Cl)=C(Cl)C1=O
5. CN(C)c1ccc(/C=C\c2ccnc3ccccc23)cc1

Result:
["2.47 µM", "> 100 µM", "> 100 µM", "27.9 µM", "> 52.6 µM"]

====

- Test system: NCI-H522 lung
- TEST DETAILS: NCI tumour cell line growth inhibition, 48 h
QUANTITY KIND: TGI

// known answers, use as guide
>>> print(df.to_string())
                                   compound    result
0  CC(C)C1CNC(=O)C2(C=NC(C(C)C)CNC(=O)C3(C=N1)CCCO3)CCCO2 (centres undefined)   > 10 µM
1  COc1ccc(C2=Nc3c(nc(OC)[nH]c3=O)NC(c3ccccc3)C2)cc1 (centres undefined)  > 100 µM
2  CCc1n[nH]c(=O)n1CCCCCCCCn1c(CC)n[nH]c1=O  > 100 µM

Now turn to the next compound.
Ask: So what does the record say about TGI for CN=C(N)c1ccc(N=C(N)c2ccc(-c3ccc(C(N)=Nc4ccc(C(N)=NC)cc4)cc3)cc2)cc1 ?
Result: > 100 µM

====

Task for the reader: assign each of the following molecules its reported GI50.
- System: HOP-62 NSCLC
- TEST DETAILS: NCI tumour cell line growth inhibition, 48 h

// known answers, use as guide
>>> df
                            compound_string    result
0  O=C1NC(=S)S/C1=C\c1cn(-c2ccccc2)nc1-c1ccccc1  22700 nM
1  O=C1/C(=C/c2ccc(Cl)c(Cl)c2)CN(C(=O)C(Cl)Cl)C/C1=C\c1ccc(Cl)c(Cl)c1    271 nM

Ask: So what does the record say about GI50 for COc1cc2cc(Oc3ccc(NC(=O)Nc4cc(C(F)(F)F)cc(C(F)(F)F)c4)cc3)c(C)nc2cc1OCCN1CCOCC1 ?
Result: 2200 nM

====

- Test system: SNB-75 CNS
- TEST DETAILS: NCI tumour cell line growth inhibition, 48 h
QUANTITY KIND: TGI (µM)
Answers are plain numbers, in µM.

// known answers, use as guide
>>> df
                                   compound  numeric_readout
0  O[C@]12C=C(c3nccc4c3[nH]c3ccccc34)[C@@H]3CCN(CCCC/C=C\CC1)C[C@@]31CC3/C=C\CCCCN3[C@H]12 (stereo partly specified)             2.88
1  O=C1CCN2c3ccccc3[C@H]3Cc4cccc(c4[C@@H]2C3)CCO1             96.7

Now turn to the next compound.
Ask: So what does the record say about TGI for COc1cccc(/C=C/C(=O)c2ccc3cc(OC)ccc3c2)c1 ?
Result: 14.6
